- system.under.test: Kappa-type opioid receptor (Homo sapiens)
- Sequence (P41145 whole entry): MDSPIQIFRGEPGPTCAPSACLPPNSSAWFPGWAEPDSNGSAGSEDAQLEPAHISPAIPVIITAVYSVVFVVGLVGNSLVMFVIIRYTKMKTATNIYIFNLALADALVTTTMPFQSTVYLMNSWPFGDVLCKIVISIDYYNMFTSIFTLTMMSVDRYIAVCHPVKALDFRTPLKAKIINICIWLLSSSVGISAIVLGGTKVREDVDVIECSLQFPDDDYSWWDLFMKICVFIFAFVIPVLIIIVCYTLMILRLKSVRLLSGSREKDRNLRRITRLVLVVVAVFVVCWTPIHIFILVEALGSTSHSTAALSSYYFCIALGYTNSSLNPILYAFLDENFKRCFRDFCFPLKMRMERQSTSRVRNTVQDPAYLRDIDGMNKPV
- test.details: Inhibition of kappa opioid receptor (unknown origin) in presence of DAMGO by [35S]-GTPgammaS binding assay
- Format: functional
readout.name: IC50 (µM)

smiles.str: CC[C@@H]1CN2CC[C@]3(Nc4cccc(OC)c4C3=O)[C@@H]2C[C@@H]1/C(=C\OC)C(=O)OC
system.under.test: Kappa-type opioid receptor (Homo sapiens)
result.units: µM
data.value: 0.132

====

Recorded measurements of IC50, one per entry
- system.under.test: Delta-type opioid receptor (Homo sapiens)
- Sequence (P41143 whole entry): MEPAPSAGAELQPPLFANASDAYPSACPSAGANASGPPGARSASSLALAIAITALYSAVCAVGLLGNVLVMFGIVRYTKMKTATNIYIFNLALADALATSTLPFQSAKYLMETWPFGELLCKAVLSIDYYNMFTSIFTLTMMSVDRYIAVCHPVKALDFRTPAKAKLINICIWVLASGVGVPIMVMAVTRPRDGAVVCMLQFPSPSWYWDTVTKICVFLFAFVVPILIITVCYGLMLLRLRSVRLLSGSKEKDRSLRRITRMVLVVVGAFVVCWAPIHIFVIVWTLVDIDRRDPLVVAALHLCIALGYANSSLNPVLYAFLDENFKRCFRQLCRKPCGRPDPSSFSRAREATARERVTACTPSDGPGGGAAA
- test.details: Inhibition of full length delta opioid receptor (unknown origin) assessed as inhibition of forskolin-stimulated intracellular cAMP accumulation
- Type: functional, cell-based
Non-standard residues stand in square brackets, D forms with d. Residues, ends and D or L forms follow the SMILES beside them. ξ: configuration not given here. ξP = O=C(O)C1CCCN1

compound: CC(C)C[C@H](NC(=O)[C@H](CC(=O)O)NC(=O)[C@H](CC(C)C)NC(=O)C1CCCN1C(=O)[C@@H](N)Cc1ccc(O)cc1)C(=O)O (some centres not stated) (H-Y[ξP]LDL-OH)
result.units: µM
IC50: 6.31
//
compound: CC(C)C[C@H](NC(=O)C1CCCN1C(=O)[C@@H](N)Cc1ccc(O)cc1)C(=O)N[C@@H](CC(=O)O)C(=O)N[C@@H](CC(C)C)C(=O)N[C@@H](Cc1ccccc1)C(=O)O (some centres not stated) (H-Y[ξP]LDLF-OH)
result.units: µM
IC50: 1.58
